# System: Nicotinate-nucleotide adenylyltransferase NadD (Staphylococcus aureus N315)
# Protocol notes: inhibitors of S. aureus NadD, primary screen, biochemical, colorimetric, uHTS (AID 602399)
# Test context: purified NadD enzyme, colorimetric absorbance read-out; at 20 µM; stronger effect = higher value
About 2,800 (0.78%) of roughly 360,000 compounds were called active. The entries come from a sample that favours actives as a whole.

Compound | Tested on | inhibition (%)
COCCN(C(=O)C(C)N1C(=O)c2ccccc2C1=O)c1c(N)n(CC(C)C)c(=O)[nH]c1=O (stereo not given) | Nicotinate-nucleotide adenylyltransferase NadD (Staphylococcus aureus N315) | 0.415
Cc1c(C(=O)OCC(=O)N(CCC#N)c2ccccc2)oc2c1ccc1ccccc12 | Nicotinate-nucleotide adenylyltransferase NadD (Staphylococcus aureus N315) | -4.25
O=C(NCC1CCCCC1)NCC1CCCCC1 | Nicotinate-nucleotide adenylyltransferase NadD (Staphylococcus aureus N315) | 2.72
Cc1ccc(C(=O)N/C(=C\c2cn(C)c3ccccc23)C(=O)N2CCN(C)CC2)cc1 | Nicotinate-nucleotide adenylyltransferase NadD (Staphylococcus aureus N315) | -3.04
CCc1[nH]nc(C(=O)N2CCCC(CO)(Cc3ccc(F)cc3F)C2)c1C (stereo not given) | Nicotinate-nucleotide adenylyltransferase NadD (Staphylococcus aureus N315) | 1.03

---

# System: Nicotinate-nucleotide adenylyltransferase NadD (Staphylococcus aureus N315)
# Protocol notes: inhibitors of S. aureus NadD, primary screen, biochemical, colorimetric, uHTS (AID 602399)
# Test context: purified NadD enzyme, colorimetric absorbance read-out; at 20 µM
Hit rate of the full screen: of about 360,000 compounds, about 2,800 (0.78%) were called active. No stated cut-off is given here; in the data, active means inhibition above about 26%; inactive means the rest. The list comes from a sample in which actives are over-represented; it also holds close analogues and randomly drawn compounds.
Possible outcomes: active, inactive

Compound | Tested on | Class name
COc1ccccc1N(CC(=O)N1CCCCC1)S(=O)(=O)c1ccccc1 | Nicotinate-nucleotide adenylyltransferase NadD (Staphylococcus aureus N315) | inactive
Cc1ccc(C(=O)Nc2c(C#N)c(C)c(C)n2Cc2ccccc2)cc1 | Nicotinate-nucleotide adenylyltransferase NadD (Staphylococcus aureus N315) | inactive
COc1cc(-c2nnn(CC(=O)NCc3ccccc3)n2)cc(OC)c1OC | Nicotinate-nucleotide adenylyltransferase NadD (Staphylococcus aureus N315) | inactive
Cc1ccc(-n2c(=O)cc(N3CCN(Cc4ccccc4)CC3)[nH]c2=O)cc1 | Nicotinate-nucleotide adenylyltransferase NadD (Staphylococcus aureus N315) | inactive
Cc1ccc(Cn2c(C)nc3c(c2=O)c2nc4ccccc4nc2n3Cc2ccco2)cc1 | Nicotinate-nucleotide adenylyltransferase NadD (Staphylococcus aureus N315) | active
COc1cccc(-n2c(=S)sc3c(=O)n(-c4ccccc4C)c(SCC(=O)O)nc32)c1 | Nicotinate-nucleotide adenylyltransferase NadD (Staphylococcus aureus N315) | inactive
CC1Cc2[nH][nH]c(=O)c2C(C2CC2)O1 (centres undefined) | Nicotinate-nucleotide adenylyltransferase NadD (Staphylococcus aureus N315) | inactive
C=CCn1c(SCc2cccc(F)c2)nc2cc(C(=O)N3CCC(C(N)=O)CC3)ccc2c1=O | Nicotinate-nucleotide adenylyltransferase NadD (Staphylococcus aureus N315) | inactive
O=C(Nc1ccccc1)c1cc2ccccc2[nH]1 | Nicotinate-nucleotide adenylyltransferase NadD (Staphylococcus aureus N315) | inactive
CCC/C=C(\CCC)C(NC(=O)Cc1ccccc1)c1ccc(C(=O)OC)cc1 (centres undefined) | Nicotinate-nucleotide adenylyltransferase NadD (Staphylococcus aureus N315) | inactive
CCn1c(SCC(=O)N/N=C/C=C/c2ccccc2[N+](=O)[O-])nnc1-c1ccccc1 | Nicotinate-nucleotide adenylyltransferase NadD (Staphylococcus aureus N315) | inactive
COc1cccc(-n2c(=S)sc3c(=O)n(-c4ccccc4OC)c(SCC4OCCO4)nc32)c1 | Nicotinate-nucleotide adenylyltransferase NadD (Staphylococcus aureus N315) | inactive
CC(=O)c1ccc(Nc2nc(C(N)c3ccccc3Cl)cs2)cc1 (centres undefined) | Nicotinate-nucleotide adenylyltransferase NadD (Staphylococcus aureus N315) | inactive
CCC(=C/c1sc2ccc3ccccc3c2[n+]1C)/C=C1\Sc2ccc3ccccc3c2N1C | Nicotinate-nucleotide adenylyltransferase NadD (Staphylococcus aureus N315) | active
CCCCCCC(=O)Nc1nc(C)c(-c2csc(Nc3cc(Cl)ccc3OC)n2)s1 | Nicotinate-nucleotide adenylyltransferase NadD (Staphylococcus aureus N315) | active
COCCNC(=O)CN(Cc1ccco1)C(=O)CCC(=O)Nc1nccs1 | Nicotinate-nucleotide adenylyltransferase NadD (Staphylococcus aureus N315) | inactive
C/C(=N\NC(=O)CSc1nc2ccccc2c(=O)n1-c1ccccc1C)c1cccs1 | Nicotinate-nucleotide adenylyltransferase NadD (Staphylococcus aureus N315) | inactive
O=C(OCc1cn(-c2ccc(Cl)c(Cl)c2)nn1)c1ccccc1Cl | Nicotinate-nucleotide adenylyltransferase NadD (Staphylococcus aureus N315) | inactive
O=C1Nc2cc(C(=O)N3CCN(c4ccc(F)cc4)CC3)ccc2NC1CSCc1cccc(F)c1 (centres undefined) | Nicotinate-nucleotide adenylyltransferase NadD (Staphylococcus aureus N315) | active
Cc1cc(Br)cn2c(Cc3ccsc3)c(-c3ccc(C#N)cc3)nc12 | Nicotinate-nucleotide adenylyltransferase NadD (Staphylococcus aureus N315) | inactive
COc1ccc(C)cc1NC(=O)c1cc(-c2ccccc2)nc2c1cnn2C(C)C | Nicotinate-nucleotide adenylyltransferase NadD (Staphylococcus aureus N315) | inactive
O=C1Nc2ccc(Br)cc2/C1=N/N=C/C1=C(N2CCOCC2)C(=C\c2ccccc2)/CC1 | Nicotinate-nucleotide adenylyltransferase NadD (Staphylococcus aureus N315) | active
COc1ccccc1-n1c(=S)[nH]c2c(sc(=S)n2-c2ccc(C)cc2C)c1=O | Nicotinate-nucleotide adenylyltransferase NadD (Staphylococcus aureus N315) | active
NC(c1ccccc1)c1csc(NC(=O)Nc2cccc(C(F)(F)F)c2)n1 (centres undefined) | Nicotinate-nucleotide adenylyltransferase NadD (Staphylococcus aureus N315) | inactive
O=c1c([N+](=O)[O-])cccn1Cc1ccc(F)cc1Cl | Nicotinate-nucleotide adenylyltransferase NadD (Staphylococcus aureus N315) | inactive
CCc1ccc(-n2c(=S)sc3c(=O)n(-c4ccccc4OC)c(=S)[nH]c32)cc1 | Nicotinate-nucleotide adenylyltransferase NadD (Staphylococcus aureus N315) | active
CCCCC(=O)Nc1nc(C)c(-c2csc(Nc3ccc(Cl)cc3)n2)s1 | Nicotinate-nucleotide adenylyltransferase NadD (Staphylococcus aureus N315) | inactive
CON(C)S(=O)(=O)c1ccc2c(c1)NC(=O)C1CCCN21 (centres undefined) | Nicotinate-nucleotide adenylyltransferase NadD (Staphylococcus aureus N315) | inactive
NC(c1csc(NC(=O)Nc2ccccc2Oc2ccccc2)n1)c1ccccc1Cl (centres undefined) | Nicotinate-nucleotide adenylyltransferase NadD (Staphylococcus aureus N315) | active

---

# Tested on: Nicotinate-nucleotide adenylyltransferase NadD (Staphylococcus aureus N315)
# Protocol notes: inhibitors of S. aureus NadD, primary screen, biochemical, colorimetric, uHTS (AID 602399)
# Test context: purified NadD enzyme, colorimetric absorbance read-out; at 20 µM; stronger effect = higher value
The whole screen tested about 360,000 compounds, of which about 2,800 (0.78%) were called active. The full list was thinned out, with actives kept by preference.
Property: inhibition (%)

Structure | Tested on | Measured number
O=C(O)CCC(=O)NCc1ccc(C(=O)O)cc1 | Nicotinate-nucleotide adenylyltransferase NadD (Staphylococcus aureus N315) | -1.86
O=C(O)c1ccc(COCC(F)(F)F)cc1 | Nicotinate-nucleotide adenylyltransferase NadD (Staphylococcus aureus N315) | 57.7
NS(=O)(=O)c1ccc(NC(=O)COC(=O)c2c3c(nc4ccccc24)/C(=C\c2ccc4c(c2)OCO4)CCC3)cc1 | Nicotinate-nucleotide adenylyltransferase NadD (Staphylococcus aureus N315) | 54.7

---

# Test system: Nicotinate-nucleotide adenylyltransferase NadD (Staphylococcus aureus N315)
# Protocol notes: inhibitors of S. aureus NadD, primary screen, biochemical, colorimetric, uHTS (AID 602399)
# Test context: purified NadD enzyme, colorimetric absorbance read-out; at 20 µM; stronger effect = higher value
The campaign covered roughly 360,000 compounds. About 2,800 (0.78%) were called active. The sample holds actives, similar compounds and a random draw of the others, so the mix is not that of the screen.
inhibition reference

Compound | inhibition, %
Nc1ccc(Cl)c(S(=O)(=O)Nc2ccccc2Cl)c1 | 6.19
O=C(NC(=O)N1CCSCC1)c1c(Cl)cccc1Cl | 17.8
Oc1ccccc1C1=NN(c2ccccc2)C(c2ccccc2)C1 (stereo unspecified) | -11.2
CC(Oc1cccc(Cl)c1)C(=O)NC1CC(C)(C)NC(C)(C)C1 (stereo unspecified) | -1.75
CCOc1cc(/C=C/C(=O)OCC(=O)NCCN2C(=O)CSC2=O)ccc1OCC(C)C | 0.893
C[C@H]1CC[C@]2(O[C@@H](CCO)C[C@@H](O)[C@@H]2O)O1 | 0.758
O=C(COC(=O)c1cccnc1Cl)Nc1ccc(S(=O)(=O)N2CCOCC2)cc1 | -4.21
COC(C(=O)Nc1ccc(S(=O)(=O)Nc2ccc(C)c(C)c2)cc1)c1ccccc1 (stereo unspecified) | -2.66
O=C(Nc1ccc(C(=O)O)cc1)/C(=C\c1ccccc1)NC(=O)c1ccc(Br)cc1 | -2.9
O=C1C2N=NN(CC(=O)N3N=C(c4cccc5ccccc45)CC3c3ccccc3)C2C(=O)N1c1ccccc1 (stereo unspecified) | 48.5
O=C(CCc1ccccc1)NNc1ccc(F)cc1 | -2.34
COc1ccc(-c2nn(-c3ccccc3)cc2/C=N/Nc2ccccn2)cc1OC | 30.9
Cc1ccc(N2C(=O)S/C(=C/c3cn(C)c4ccccc34)C2=O)cc1 | 2.76
CC1CN(S(=O)(=O)c2ccc(C(=O)NN3CCN(C)CC3)cc2)CC(C)O1 (stereo unspecified) | -3.52
COC(C[C@@H]1O[C@@H]1C(=O)[C@@H](C)OCc1ccccc1)OC | -1.07
COC(=O)c1ccc2nc(-c3ccccc3)c(Cc3ccc(OC)cc3C)n2c1 | 10.9
COc1ccc(OC)c(/C=N/NC(=O)CSc2nnc(C)n2-c2ccccc2)c1 | 4.2
COCCCn1c(=O)/c(=C/c2ccccc2OC(C)C)s/c1=C(\C#N)C(=O)Nc1ccc(C(=O)O)cc1 | 32
COc1ccc(C(=O)c2c(C)c(CCC#N)n3ccccc23)c(OC)c1 | -8.39
CCOC(OCC)c1ccc(/C=C\c2nccc(N)n2)cc1 | -3.79
Nc1ccc2nc3c(=O)[nH]c(=S)[nH]c3nc2c1 | 70.1
